target: HDAC1 enzyme (Homo sapiens, UniProt Q13547); construct: prepared by transducing full length HDAC1 and HDAC6 genes into Sf-9 insect cells; GST; purchased SignalChem; host or cells: Sf-9 insect cells; experiment: HDAC1 enzyme inhibitory assay (HDAC-Glo I/II Assay kit); format: biochemical; details: 1 μM test compound; 1 µM
Sequence (Q13547 whole entry): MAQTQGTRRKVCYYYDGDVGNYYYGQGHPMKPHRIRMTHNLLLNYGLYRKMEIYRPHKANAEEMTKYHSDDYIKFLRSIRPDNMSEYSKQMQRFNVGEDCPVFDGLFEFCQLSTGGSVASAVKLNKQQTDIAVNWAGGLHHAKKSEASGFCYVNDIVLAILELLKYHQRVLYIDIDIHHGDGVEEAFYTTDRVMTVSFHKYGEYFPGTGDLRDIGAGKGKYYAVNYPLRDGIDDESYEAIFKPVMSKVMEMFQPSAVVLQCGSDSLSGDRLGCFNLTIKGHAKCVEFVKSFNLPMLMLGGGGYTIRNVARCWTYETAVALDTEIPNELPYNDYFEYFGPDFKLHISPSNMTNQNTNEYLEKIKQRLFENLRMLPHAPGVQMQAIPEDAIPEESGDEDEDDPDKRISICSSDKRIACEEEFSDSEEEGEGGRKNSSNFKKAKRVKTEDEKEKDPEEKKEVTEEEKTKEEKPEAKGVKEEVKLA
Below is a list of entries, each paired with its recorded HDAC1 inhibitory rate (%) (1 μM) value.
Express the result in % but write the number alone.

O=C(NC[C@H]1COCCN1C(=O)c1cc(Cl)cc(Cl)c1)c1ccc(-c2noc(C(F)(F)F)n2)cc1 [Example 37] ... 27
O=C(NC[C@H]1COCCN1C(=O)N1CCC(CO)C1)c1ccc(-c2noc(C(F)(F)F)n2)cc1 (stereo partly shown) [Example 299] ... 4
O=C(NC[C@H]1COCCN1C(=O)N1CCOCC1CO)c1ccc(-c2noc(C(F)(F)F)n2)cc1 (stereo partly shown) [Example 311] ... 7

### Prompt Recall the recorded HDAC1 inhibitory rate (%) (1 μM) for O=C(NCC1COCCN1C(=O)c1cccc(F)c1)c1ccc(-c2noc(C(F)(F)F)n2)cc1 (stereo in doubt) [Example 113] with HDAC1 enzyme (Homo sapiens, UniProt Q13547) and state it.
### Response 17

###

Below is a list of entries, each paired with its recorded inhibition at 1 µM value.
target: HDAC1 enzyme (Homo sapiens, UniProt Q13547); construct: prepared by transducing full length HDAC1 and HDAC6 genes into Sf-9 insect cells; GST; purchased SignalChem; host or cells: Sf-9 insect cells; assay: HDAC1 enzyme inhibitory assay (HDAC-Glo I/II Assay kit); assay type: biochemical; details: 1 μM test compound; read-out: HDAC1 inhibitory rate (%) (1 μM)
Express the result in % but write the number alone.

O=C(NC[C@@H]1COCCN1C(=O)c1ccno1)c1ccc(-c2noc(C(F)(F)F)n2)cc1 ... 6
O=C(NCC1COCCN1C(=O)c1ccccc1Cl)c1ccc(-c2noc(C(F)(F)F)n2)cc1 (stereo not drawn) ... 22
O=C(NCC1COCCN1C(=O)c1cccc(-c2ccccc2)c1)c1ccc(-c2noc(C(F)(F)F)n2)s1 (stereo not drawn) ... 7
N#Cc1cc(F)cc(C(=O)N2CCOC[C@@H]2CNC(=O)c2ccc(-c3noc(C(F)(F)F)n3)cc2)c1 ... 17
O=C(NCC1COCCN1C(=O)c1cc2ccccc2o1)c1ccc(-c2noc(C(F)(F)F)n2)cc1 (stereo not drawn) ... 24

### Prompt Requested read-out: inhibition at 1 µM. Entry: O=C(NCC1CN(C(=O)c2ccccc2)CCN1C(=O)c1ccccc1)c1ccc(-c2noc(C(F)(F)F)n2)cc1 (stereo not drawn)
### Response 17

### Prompt Requested read-out: inhibition at 1 µM. Entry: O=C(NC[C@H]1COCCN1C(=O)c1ccno1)c1ccc(-c2noc(C(F)(F)F)n2)cc1
### Response 10

### Prompt Requested read-out: inhibition at 1 µM. Entry: O=C(NC[C@H]1COCCN1C(=O)C1CCCCC1)c1ccc(-c2noc(C(F)(F)F)n2)cn1
### Response 22

### Prompt Requested read-out: inhibition at 1 µM. Entry: O=C(NC[C@H]1COCCN1C(=O)N1CCC(c2cccnc2)C1)c1ccc(-c2noc(C(F)(F)F)n2)cc1 (stereo partly drawn)
### Response 5

### Prompt Requested read-out: inhibition at 1 µM. Entry: Cc1nonc1C(=O)N1CCOCC1CNC(=O)c1ccc(-c2noc(C(F)(F)F)n2)s1 (stereo not drawn)
### Response 43

### Prompt Requested read-out: inhibition at 1 µM. Entry: O=C(NC[C@@H]1COCCN1C(=O)C1(c2ccccc2)CC1)c1ccc(-c2noc(C(F)(F)F)n2)cn1
### Response 16

### Prompt Requested read-out: inhibition at 1 µM. Entry: O=C(NCC1COCCN1C(=O)c1cc(Cl)cc(Cl)c1)c1ccc(-c2noc(C(F)(F)F)n2)cn1 (stereo not drawn)
### Response 42

### Prompt Requested read-out: inhibition at 1 µM. Entry: Cc1nnsc1C(=O)N1CCOCC1CNC(=O)c1ccc(-c2noc(C(F)(F)F)n2)s1 (stereo not drawn)
### Response 27

### Prompt Requested read-out: inhibition at 1 µM. Entry: O=C(NC[C@H]1COCCN1C(=O)c1csnn1)c1ccc(-c2noc(C(F)(F)F)n2)cc1
### Response 5

### Prompt Requested read-out: inhibition at 1 µM. Entry: Cc1nonc1C(=O)N1CCOC[C@@H]1CNC(=O)c1ccc(-c2noc(C(F)(F)F)n2)s1
### Response 44

### Prompt Requested read-out: inhibition at 1 µM. Entry: O=C(NCC1CCc2ccccc2N1C(=O)C1CC1)c1ccc(-c2noc(C(F)(F)F)n2)cc1 (stereo not drawn)
### Response 8

The reported numbers originate from patent US10081624B2.
